Test system: Brain COMT
ASSAY TEXT: Ex vivo COMT activity in mice brain homogenates after administration by gastric tube
DETAILS: mice brain homogenates; 6 h after administration by gastric tube; means ± S.E.M. of 4-8
Let's look at some compounds and their measured Brain COMT (% of control) 6 h.

Use the examples below as a reference point.
COMPOUND | RESULT VALUE
Cl.O=C(CN1CCCCCC1)c1cc(O)c(O)c([N+](=O)[O-])c1 | 102.0 ± 19.0 % of control
CCN(CC)C(C)C(=O)c1cc(O)c(O)c([N+](=O)[O-])c1.Cl (stereo not drawn) | 126.0 ± 8.0 % of control
CC1CC(C)CN(CC(=O)c2cc(O)c(O)c([N+](=O)[O-])c2)C1.Cl (stereo not drawn) | 84.0 ± 6.0 % of control
CC1CN(CC(=O)c2cc(O)c(O)c([N+](=O)[O-])c2)CC(C)O1.Cl (stereo not drawn) | 103.0 ± 7.0 % of control
Cl.N#CC1(c2ccccc2)CCN(CCC(=O)c2cc(O)c(O)c([N+](=O)[O-])c2)CC1 | 122.0 ± 9.0 % of control

Please look at the following compound next.
Query block: # return recorded Brain COMT (% of control) 6 h for entry CC1CCCCN1CC(=O)c1cc(O)c(O)c([N+](=O)[O-])c1.Cl (stereo not drawn)
Result block: 66.0 ± 2.6 % of control
